Tested on: PC-3 prostate
MEASUREMENT NOTES: NCI-60 one-dose screen, 48 h
SETUP CONDITIONS: 10 µM unless noted
About 83,000 compounds went through this panel and 20% of them were active in at least one assay; those are over-represented in the sample as a whole. Active and inactive are the calls of the source. The calls were made as follows: active = growth percent below 10; inactive = the rest.
Give your call using only these classes: active, inactive

Answered examples (5):
O=C1Nc2ccccc2Oc2ccc(S(=O)(=O)CC3CO3)cc21 (stereo unspecified)
inactive
Cn1c(SCC(=O)c2cccs2)nc2ccccc2c1=O
inactive
C=CCn1c(SCC(=O)c2ccccc2)nnc1-c1c[nH]c2ccccc12
inactive
C#Cc1nc(C2=C(C)C(O)/C(=N/O)C2)cs1 (stereo unspecified)
inactive
CCCSc1nc(Nc2ccc(/C(C)=N\NC(N)=S)cc2)c(C#N)c(-c2ccc(OC)cc2)n1
inactive

Problem: Returns: the outcome recorded for `COc1ccc(/C=C2\SC(=Nc3cc(C)on3)NC2=O)cc1` in this assay.
Result: inactive

Problem: Returns: the outcome recorded for `N#Cc1nc(-c2ccccc2)oc1S(=O)(=O)N1CCN(CCc2ccccn2)CC1` in this assay.
Result: inactive

Problem: Returns: the outcome recorded for CN1C(=S)N(C)C2C1NN=C1SC(c3ccccc3)=CC(=O)N12 (stereo unspecified) in this assay.
Result: inactive

Problem: Returns: the outcome recorded for `CN1CCN(Cc2ccc(NC(=O)c3cncc(C#Cc4cnc5ccc(N6CCSCC6)nn45)c3)cc2C(F)(F)F)CC1` in this assay.
Result: active

Problem: Returns: the outcome recorded for `NS(=O)(=O)c1cccc(Nc2nc(SCC(=O)c3ccc(Cl)cc3)nc3ccccc23)c1` in this assay.
Result: inactive

Problem: Returns: the outcome recorded for COC1CCN(Cc2ccc3c(NNC(=O)c4cnccn4)nc4cc(F)ccc4n23)C1 (stereo unspecified) in this assay.
Result: inactive

Problem: Returns: the outcome recorded for `CS(=O)(=O)c1ccc(-c2nc3ccccn3c2-c2nc3ccc([N+](=O)[O-])cc3[nH]2)cc1` in this assay.
Result: inactive

Problem: Returns: the outcome recorded for `OC1CCN(CCCOc2c3ccccc3nc3c2oc2ccc(Cl)cc23)CC1` in this assay.
Result: active

Problem: Returns: the outcome recorded for `NS(=O)(=O)c1cccc(Nc2nc(SCC(=O)c3ccc(Br)cc3)nc3ccccc23)c1` in this assay.
Result: inactive

Problem: Returns: the outcome recorded for `COc1ccc(NC2=CC(=O)C(C)=C(C)C2=O)cc1` in this assay.
Result: inactive

Problem: Returns: the outcome recorded for `CNC(=O)c1cc(-c2ccc(NC(=O)Nc3ccc(N4CCOCC4)c(C(F)(F)F)c3)cc2)nc2cccnc12` in this assay.
Result: inactive

Problem: Returns: the outcome recorded for `CCOC(=O)c1c(Nc2ccccc2)nn2c(-c3ccco3)c(C#N)cnc12` in this assay.
Result: inactive

Problem: Returns: the outcome recorded for `CN(C)S(=O)(=O)c1oc(-c2ccccc2)nc1C#N` in this assay.
Result: inactive

Problem: Returns: the outcome recorded for `O=C(N/N=C/c1cccs1)c1[nH]c2ccc(Br)cc2c1-c1ccccc1` in this assay.
Result: inactive

Problem: Returns: the outcome recorded for `Nc1cc(-c2c[nH]c3ccc(F)cc23)nc2cc(-c3c[nH]c4ccc(F)cc34)nn12` in this assay.
Result: inactive

Problem: Returns: the outcome recorded for `Cn1cc(-c2cc(N)n3nc(-c4cn(C)c5ccc(Cl)cc45)cc3n2)c2cc(Cl)ccc21` in this assay.
Result: inactive
